Here's a roundup of IC50 values tested on human DGAT1 (Homo sapiens), taken from various published works.

Record summary for "Nc1ncnc2c1N=C(c1ccc(Br)s1)CO2" : reported IC50 = > 100 nM

Record summary for "O=C(O)CCc1ccc(-c2csc3c(-c4ccc(NC(=O)Nc5cc(Cl)ccn5)cc4)ncnc23)cc1" : reported IC50 = < 5 nM

Record summary for "COc1ccccc1NC(=O)Nc1ccc(-c2ncnc3c(-c4ccc(CCC(=O)O)cc4)csc23)cc1" : reported IC50 = < 5 nM

Record summary for "CC(C)N(NC(=O)c1cccc(OCC(N)=O)c1)C(=O)/C=C/c1cn(C(=O)OC(C)(C)C)c2ccccc12" : reported IC50 = > 100000 nM

Record summary for Cc1nc(N)c2c(n1)OC(C)(C)C(c1ccc3c(c1)CCC31CCC(C(C)(C)C(=O)O)CC1)=N2 (centres unmarked) : reported IC50 = 10 to 100 nM

Record summary for "Cc1nc(N)c2c(n1)OC(C)(C)C(c1ccc([C@H]3CC[C@H](CCc4nn[nH]n4)CC3)cc1)=N2" : reported IC50 = < 10 nM

Record summary for "CC1(C)Oc2ncnc(N)c2N=C1c1ccc([C@H]2CC[C@H](CNC(=O)OCc3ccccc3)CC2)cc1" : reported IC50 = 10 to 100 nM

Record summary for "Nc1ncnc2c1N=C(c1c(F)c(F)c(F)c(F)c1F)CO2" : reported IC50 = > 100 nM

* * *

Here's a roundup of IC50 values tested on human DGAT1 (Homo sapiens), taken from various published works.

molecule=CN1CCC(NC(=O)Nc2ccc(-c3ncnc4c(-c5ccc(CCC(=O)O)cc5)csc34)cc2)CC1 studysystem="human DGAT1 (Homo sapiens)" val="< 1 nM"
molecule=Cc1nc(N)c2c(n1)OC(C)(C)C(c1ccc([C@H]3CC[C@H](CNC(N)=O)CC3)c(Cl)c1)=N2 studysystem="human DGAT1 (Homo sapiens)" val="10 to 100 nM"
molecule=Cc1nc(N)c2c(n1)OC(C)(C)C(c1ccc([C@H]3CC[C@H](CCC(=O)NC(C)(C)CO)CC3)cc1)=N2 studysystem="human DGAT1 (Homo sapiens)" val="10 to 100 nM"
molecule=O=C(Nc1cnc(N2CCN(C(=O)Nc3ccccc3F)CC2)nc1)c1oc(N2CCC(c3ccccc3)CC2)nc1C(F)(F)F studysystem="human DGAT1 (Homo sapiens)" val="101 to 500 nM"
molecule="O=C(Nc1ccc(N2CCN(C(=O)C3Cc4ccccc4N3)CC2)nc1)c1oc(N2CCC(c3ccccc3)CC2)nc1C(F)(F)F (stereo not shown)" studysystem="human DGAT1 (Homo sapiens)" val="101 to 500 nM"
molecule="CCC(C(=O)O)C1CCC(c2ccc(C3=Nc4c(N)ncnc4OC3(C)C)cc2)CC1 (stereo not shown)" studysystem="human DGAT1 (Homo sapiens)" val="< 10 nM"

Switching to the query record.
Record summary for "CC1(C)Oc2ncnc(N)c2N=C1c1ccc([C@H]2CC[C@H](CN3CCCCC3)CC2)cc1" : reported IC50 = > 100 nM

* * *

Here's a roundup of IC50 values tested on human DGAT1 (Homo sapiens, UniProt O75907), taken from various published works.
Sequence (O75907 whole entry): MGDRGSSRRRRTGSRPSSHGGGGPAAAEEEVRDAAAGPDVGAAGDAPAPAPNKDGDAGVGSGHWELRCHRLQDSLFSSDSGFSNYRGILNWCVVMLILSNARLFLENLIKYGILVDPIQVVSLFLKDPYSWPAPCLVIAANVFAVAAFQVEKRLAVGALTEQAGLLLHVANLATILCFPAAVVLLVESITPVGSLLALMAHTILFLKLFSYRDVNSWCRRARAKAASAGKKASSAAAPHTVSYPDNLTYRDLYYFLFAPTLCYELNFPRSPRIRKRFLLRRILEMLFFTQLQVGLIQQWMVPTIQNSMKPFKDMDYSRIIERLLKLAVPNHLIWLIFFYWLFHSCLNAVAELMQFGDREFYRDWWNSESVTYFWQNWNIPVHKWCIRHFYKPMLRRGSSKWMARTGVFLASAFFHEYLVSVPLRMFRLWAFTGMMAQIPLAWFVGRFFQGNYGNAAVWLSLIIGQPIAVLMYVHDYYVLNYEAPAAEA

Record summary for "CC(C)NC(=O)CC[C@H]1CC[C@H](c2ccc(C3=Nc4c(N)ncnc4OC3(C)C)cc2)CC1" : reported IC50 = < 10 nM

Record summary for "CS(=O)(=O)c1ccc(-c2csc3c(-c4ccc(NC(=O)Nc5cccc(Cl)c5)cc4)ncnc23)cc1" : reported IC50 = < 10 nM

Record summary for CC1CCCN(c2nc(C(F)(F)F)c(C(=O)Nc3ccc(-c4ccc(C(=O)O)nc4)cc3)o2)C1 (stereo not shown) : reported IC50 = 101 to 500 nM

Record summary for "Cc1nc(N)c2c(n1)OC(C)(C)C(c1ccc([C@H]3CC[C@H](CNC(=O)OCC(C)C)CC3)c(Cl)c1)=N2" : reported IC50 = 10 to 100 nM

Record summary for "O=C(Nc1ccc(N2CCN(C(=O)[C@@H](O)C3CCCCC3)CC2)nc1)c1oc(-c2ccccc2)nc1C(F)(F)F" : reported IC50 = 11 to 100 nM

Record summary for "COc1ccc(Cl)c(NC(=O)Nc2ccc(-c3ncnc4c(-c5ccc(CCC(=O)O)cc5)csc34)cc2)c1" : reported IC50 = < 5 nM

Record summary for CN(C)CCNC(=O)C=C1CCC(c2ccc(C3=Nc4c(N)ncnc4OC3(C)C)cc2)CC1 (stereo not shown) : reported IC50 = 10 to 100 nM

Record summary for "CC1(C)Oc2ncnc(N)c2N=C1c1ccc([C@H]2CC[C@H](CCC(N)=O)CC2)cc1" : reported IC50 = 10 to 100 nM

Record summary for Cc1cnc(Nc2ccc(-c3ccc4c(c3)CCC(CC(=O)O)(CC(F)(F)F)C4=O)nn2)s1 (single isomer, unassigned) : reported IC50 = 500 to 10000 nM

Record summary for "Cc1nc(N)c2c(n1)OC(C)(C)C(c1ccc([C@H]3CC[C@H](CCc4nc(=O)s[nH]4)CC3)cc1)=N2" : reported IC50 = 10 to 100 nM

* * *

Here's a roundup of IC50 values tested on human DGAT1 (Homo sapiens, UniProt O75907), taken from various published works.

Please review the following examples before continuing.
molecule=CC1(C)Oc2ncnc(N)c2N=C1c1ccc([C@H]2CC[C@H](Cc3cnc(C4CC4)[nH]3)CC2)cc1 measurementlabel=IC50 val="0.01 to 0.1 µM"
molecule=Cc1nc(N)c2c(n1)OC(C)(C)C(c1ccc([C@H]3CC[C@H](CSCC(=O)O)CC3)cc1)=N2 measurementlabel=IC50 val="0.01 to 0.1 µM"
molecule="CC(C(=O)O)C1CCC(c2ccc(C3=Nc4c(N)nc(C(F)(F)F)nc4OC3(C)C)cc2)CC1 (stereo not drawn)" measurementlabel=IC50 val="< 0.01 µM"
molecule="CC1(C)Oc2ncnc(N)c2N=C1c1ccc2c(c1)C(CC(=O)O)CCC2 (stereo not drawn)" measurementlabel=IC50 val="> 0.1 µM"
molecule="CC1(C)Oc2ncnc(N)c2N=C1c1ccc(C2CCC(c3cc(O)on3)CC2)cc1 (stereo not drawn)" measurementlabel=IC50 val="0.01 to 0.1 µM"
molecule=O=C(Nc1ccc(N2CCC(CCc3ccccc3)CC2)nc1)c1oc(-c2ccccc2)nc1C(F)(F)F measurementlabel=IC50 val="0.101 to 0.5 µM"
molecule=CCC(=O)N(C)CC(=O)Nc1ccc(N2CCN(C(=O)Nc3c(Cl)cccc3Cl)CC2)cc1 measurementlabel=IC50 val="0.245 µM"
molecule=COc1ccc(NC(=O)Nc2ccc(-c3ncnc4c(-c5ccc(CCC(=O)O)cc5)csc34)cc2)cc1 measurementlabel=IC50 val="< 0.005 µM"
molecule=Cc1nc(N)c2c(n1)OC(C)(C)C(c1ccc([C@H]3CC[C@H](CC(C)(C)C(=O)O)CC3)cc1)=N2 measurementlabel=IC50 val="0.01 to 0.1 µM"
molecule="O=C(O)CC1(CC(F)(F)F)CCc2cc(-c3ccc(Nc4cccc(Cl)c4)nn3)ccc2C1=O (single isomer, unassigned)" measurementlabel=IC50 val="≤ 0.1 µM"

Test item CCc1nc(N)c2c(n1)OC(C)(C)C(c1ccc([C@H]3CC[C@H](CC(=O)O)CC3)cc1)N2 (stereo partly drawn) ; human DGAT1 (Homo sapiens, UniProt O75907); reported IC50 was 0.01 to 0.1 µM

Test item "Cc1nc(N)c2c(n1)OC(C)(C)C(c1ccc([C@H]3CC[C@H](CCc4nc(=O)o[nH]4)CC3)cc1)=N2" ; human DGAT1 (Homo sapiens, UniProt O75907); reported IC50 was 0.01 to 0.1 µM

* * *

Here's a roundup of pIC50 values tested on human DGAT1 (Homo sapiens, UniProt O75907), taken from various published works.
pIC50: −log10 of the molar value.

Please review the following examples before continuing.
molecule=Cc1nc(N)c2c(n1)OC(C)(C)C(c1ccc([C@H]3CC[C@H](CN4CCOC4=O)CC3)cc1)=N2 val="7.00 to 8.00"
molecule="Nc1ncnc2c1NC(c1ccc(Br)cc1)C1(CCCC1)O2 (centres unmarked)" val="< 7.00"
molecule=CCCCc1ccc(C2=Nc3c(N)ncnc3OC2)cc1 val="< 7.00"

Record summary for COc1ccc(CC(=O)Nc2ccc(N3CCN(C(=O)C(N)c4ccccc4Cl)CC3)cc2)cc1 (centres unmarked) : reported pIC50 = 5.61

Record summary for "CC1(C)Oc2ncnc(N)c2N=C1c1ccc([C@H]2CC[C@H](CN3CCCC3)CC2)cc1" : reported pIC50 = < 7.00

Record summary for CC1(C)Oc2ncnc(N)c2NC1c1ccc([C@H]2CC[C@H](CCC(=O)O)CC2)cc1 (some centres unmarked) : reported pIC50 = 7.00 to 8.00

Record summary for "O=C(Nc1ccc(N2CCN(C(=O)Nc3c(Cl)cccc3Cl)CC2)cc1)c1ccc(-c2cnco2)cc1" : reported pIC50 = 7.89

Record summary for "O=C(CCCc1ccccc1)Nc1ccc(N2CCN(C(=O)Nc3ccccc3Cl)CC2)cc1" : reported pIC50 = 6.84

Record summary for "O=C(O)C1(COC2CCN(c3ccc(-c4nc5ccc(F)cc5[nH]4)cn3)CC2)CCC1" : reported pIC50 = 7.82

Record summary for "CC1(C)Oc2ncnc(N)c2N=C1c1ccc([C@H]2CC[C@H](C(=O)N3CCCC3)CC2)cc1" : reported pIC50 = 7.00 to 8.00

Record summary for CC1(C)Oc2ncnc(N)c2N=C1c1ccc(C2CCC(C3(C(=O)O)CC3)CC2)cc1 (centres unmarked) : reported pIC50 = 7.00 to 8.00
